Biological target: Leukotriene A-4 hydrolase (Homo sapiens) (UniProt P09960)
Sequence (P09960 whole entry): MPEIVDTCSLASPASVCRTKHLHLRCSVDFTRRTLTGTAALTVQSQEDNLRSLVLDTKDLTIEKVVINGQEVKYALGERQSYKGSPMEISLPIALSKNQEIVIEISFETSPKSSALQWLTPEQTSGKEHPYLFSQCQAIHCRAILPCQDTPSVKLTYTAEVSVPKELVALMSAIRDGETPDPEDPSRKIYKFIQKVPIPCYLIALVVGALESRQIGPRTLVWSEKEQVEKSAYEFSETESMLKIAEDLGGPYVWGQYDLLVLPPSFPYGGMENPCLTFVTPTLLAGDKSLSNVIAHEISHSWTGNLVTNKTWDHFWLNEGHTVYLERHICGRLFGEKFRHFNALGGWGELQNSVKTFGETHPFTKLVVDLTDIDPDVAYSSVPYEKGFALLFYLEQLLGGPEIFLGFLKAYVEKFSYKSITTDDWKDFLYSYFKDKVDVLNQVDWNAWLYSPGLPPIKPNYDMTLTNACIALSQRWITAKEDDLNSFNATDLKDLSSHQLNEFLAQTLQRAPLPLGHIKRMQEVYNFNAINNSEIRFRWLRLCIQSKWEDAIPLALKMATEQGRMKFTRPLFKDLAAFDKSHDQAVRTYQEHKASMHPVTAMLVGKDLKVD
Assay: Kinetic parameter kcat against LTA4 hydrolase purified from human leukocytes
measurement-type: k cat (s⁻¹)

The examples below pair each entry with its known result.
mol: NC(N)=NCCC[C@H](N)C(=O)Nc1ccc([N+](=O)[O-])cc1
units-label: s⁻¹
k cat: 0.15
--
mol: C[C@H](N)C(=O)Nc1ccc([N+](=O)[O-])cc1
units-label: s⁻¹
k cat: 0.6
--
mol: CC(C)C[C@H](N)C(=O)Nc1ccc([N+](=O)[O-])cc1
units-label: s⁻¹
k cat: 0.15

I: O=C(Nc1ccc([N+](=O)[O-])cc1)[C@@H]1CCCN1
II: CCCCC/C=C\C\C=C/C=C/C=C/[C@@H]1O[C@H]1CCCC(=O)O
III: NCCCC[C@H](N)C(=O)Nc1ccc([N+](=O)[O-])cc1
Exercise: rank_up(items): orders items by reported k cat in ascending numerical order. Record the ranking as a list of labels in the requested order.
Key: III, I, II
(III: 0.035 s⁻¹, I: 0.15 s⁻¹, II: 0.68 s⁻¹)

----------
The next entries give measured IC50 for Cytosol aminopeptidase (Homo sapiens).

The examples below pair each entry with its known result.
mol: N[C@H](CS)Cc1ccc(OCc2ccccc2)cc1
IC50: > 50 µM
//
mol: N[C@@H](Cc1ccc(OCc2ccccc2)cc1)C(=O)C(=O)OCc1ccccc1
IC50: > 100 µM

Then this compound:
Exercise: Item: N[C@@H](Cc1ccc(OCc2ccccc2)cc1)[C@H](O)C(=O)OCc1ccccc1 Test system: Cytosol aminopeptidase (Homo sapiens) Read-out: IC50 Value: ?
Key: 80 µM
